Tested Target: PIM-2 (Homo sapiens, UniProt Q9P1W9)
Sequence (Q9P1W9 whole entry): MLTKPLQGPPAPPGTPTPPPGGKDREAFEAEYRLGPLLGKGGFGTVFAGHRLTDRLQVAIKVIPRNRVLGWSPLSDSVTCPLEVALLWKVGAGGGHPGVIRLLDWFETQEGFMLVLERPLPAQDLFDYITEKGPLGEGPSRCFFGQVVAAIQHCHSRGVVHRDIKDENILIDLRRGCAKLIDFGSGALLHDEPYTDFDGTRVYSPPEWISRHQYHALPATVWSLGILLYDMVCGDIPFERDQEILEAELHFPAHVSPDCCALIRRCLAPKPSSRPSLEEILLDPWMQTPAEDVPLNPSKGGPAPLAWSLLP
pIC50: −log10 of the molar value.
Value Type: pIC50

Would you please look over these solved cases?
Compound String | Tested Target | Value Type | Measurement
O=C(O)/C=C/c1cccc(-c2cncc(N3CCC(O)CC3)n2)c1 | PIM-2 (Homo sapiens, UniProt Q9P1W9) | pIC50 | 5.98
CN1CCCN(c2cncc(-c3cccc(/C=C/C#N)c3)n2)CC1 | PIM-2 (Homo sapiens, UniProt Q9P1W9) | pIC50 | 4.89

a = CC(C)(CN)CNc1cncc(-c2cccc(/C=C/C(=O)O)c2)n1
b = O=C(O)/C=C/c1cccc(-c2cncc(NCCO)n2)c1
Ask | Among a and b , which shows a numerically higher pIC50 result? State your choice using its label.
Reply | a
(a: 7.57, b: 6.52)

A = NCC1CCN(c2cncc(-c3cccc(/C=C/C(=O)O)c3)n2)CC1
B = NC(=O)CCNc1cncc(-c2cccc(/C=C/C(=O)O)c2)n1
Ask | # return whichever of A and B has the smaller pIC50 State your choice using its label.
Reply | B
(B: 6.60, A: 7.68)
